# Test system: M. tb, strain H37Rv
# test_protocol: LORA minimum inhibitory concentration assay (hypoxic)
# Type: cell-based
# test_settings: Mycobacterium tuberculosis
Recorded MIC determines the group label, using bottom (below 2 µM), middle (2 µM to below 8 µM), top (8 µM or more)

INSERT INTO measurements (molecule, class_assignment) VALUES
  ('CC1(COc2ccc(-c3ccc(F)cn3)cn2)CCn2cc([N+](=O)[O-])nc2O1 (stereo not shown)', 'top'),
  ('O=[N+]([O-])c1cn2c(n1)OC(COc1ccc(-c3ccc(OC(F)(F)F)cc3)cc1)CC2 (stereo not shown)', 'bottom'),
  ('O=[N+]([O-])c1cn2c(n1)OC(CN1CCC(c3ccc(F)cc3)CC1)CC2 (stereo not shown)', 'top'),
  ('CC1(COc2cccc(-c3ccc(F)cc3F)n2)CCn2cc([N+](=O)[O-])nc2O1 (stereo not shown)', 'middle'),
  ('CC1(COc2ccc(-c3ccc(F)cc3)cn2)CCn2cc([N+](=O)[O-])nc2O1 (stereo not shown)', 'bottom'),
  ('CC1(COCc2ccc(OCc3ccccc3)cc2)CCn2cc([N+](=O)[O-])nc2O1 (stereo not shown)', 'bottom'),
  ('O=[N+]([O-])c1cn2c(n1)O[C@@H](COc1ccc(-c3ccc(OC(F)(F)F)cc3)nc1)CC2', 'bottom'),
  ('CC1(COC(=O)N2CCN(c3ccc(F)cc3)CC2)CCn2cc([N+](=O)[O-])nc2O1 (stereo not shown)', 'top'),
  ('O=[N+]([O-])c1cn2c(n1)OC(COc1cnc(-c3ccc(F)cc3)cn1)CC2 (stereo not shown)', 'top'),
  ('O=[N+]([O-])c1cn2c(n1)OC(COc1cccc(-c3ccc(F)cc3F)n1)CC2 (stereo not shown)', 'top'),
  ('O=[N+]([O-])c1cn2c(n1)OC(COc1ccc(-c3ccc(F)cc3F)nc1)CC2 (stereo not shown)', 'top'),
  ('CC1(COc2ccc(-c3ccc(OC(F)(F)F)cc3)cn2)CCn2cc([N+](=O)[O-])nc2O1 (stereo not shown)', 'middle'),
  ('O=[N+]([O-])c1cn2c(n1)OC(COc1ccc(-c3ccc(OC(F)(F)F)cc3)nc1)CC2 (stereo not shown)', 'bottom'),
  ('O=[N+]([O-])c1cn2c(n1)OC(COc1ccc(-c3ccc(F)nc3F)nc1)CC2 (stereo not shown)', 'top'),
  ('O=[N+]([O-])c1cn2c(n1)OC(COc1ccc(-c3ccc(F)nc3)cc1)CC2 (stereo not shown)', 'middle'),
  ('O=[N+]([O-])c1cn2c(n1)OC(COc1cccc(-c3ccc(F)nc3)n1)CC2 (stereo not shown)', 'top');

----------
# Test system: Leishmania infantum
# test_protocol: L. inf growth inhibition in mouse macrophages (LMPH)
# Assay type: cell-based
# test_settings: Macrophage, mean of at least two determinations
// IC50 lookup, one value per entry
measurement_name: IC50 (nM)

INSERT INTO measurements (molecule, value_reported) VALUES
  ('CC1(COc2ccc(-c3ccc(F)cc3)cc2)CCn2cc([N+](=O)[O-])nc2O1 (stereo not shown)', 340),
  ('CC1(CN2CCC(c3ccc(F)cc3)CC2)CCn2cc([N+](=O)[O-])nc2O1 (stereo not shown)', 320),
  ('O=[N+]([O-])c1cn2c(n1)OC(COc1cnc(-c3ccc(F)cc3)nc1)CC2 (stereo not shown)', 210),
  ('CC1(COc2cccc(-c3ccc(F)cc3)n2)CCn2cc([N+](=O)[O-])nc2O1 (stereo not shown)', 180),
  ('CC1(COCc2ccc(OC(F)(F)F)cc2)CCn2cc([N+](=O)[O-])nc2O1 (stereo not shown)', 300),
  ('CC1(COc2ccc(-c3ccc(F)cc3F)cn2)CCn2cc([N+](=O)[O-])nc2O1 (stereo not shown)', 110),
  ('O=[N+]([O-])c1cn2c(n1)OC(COc1ccc(-c3ccc(F)nc3F)cn1)CC2 (stereo not shown)', 190),
  ('O=[N+]([O-])c1cn2c(n1)OC(COc1cccc(-c3ccc(F)cc3)n1)CC2 (stereo not shown)', 140),
  ('CC1(COc2ccc(-c3ccc(F)nc3F)cn2)CCn2cc([N+](=O)[O-])nc2O1 (stereo not shown)', 200),
  ('CC1(COc2ccc(-c3ccc(OC(F)(F)F)cc3)cn2)CCn2cc([N+](=O)[O-])nc2O1 (stereo not shown)', 3800);

Source listed as paper PMC7722354.
